Parameter pIC50: see the listing below.
Test system: NCI-H1299 (non-small cell lung) cells
ASSAY_SUMMARY: MTS cell survival assay, NCI-H1299 (non-small cell lung)
Type: cell-based
REPORTED_CONDITIONS: Homo sapiens, 48 hours incubation, read-out: IC50 cell line NCI-H1299
// pIC50 here means minus log10 of the molar concentration (mol/L)

| COMPOUND | pIC50 |
| --- | --- |
| CCCN(C(=O)C(NC(=O)C1CCCCN1C)[C@@H](C)CC)[C@H](C[C@@H](OC(C)=O)c1nc(C(=O)N[C@@H](Cc2ccc(F)cc2)C[C@H](C)C(=O)O)cs1)C(C)C (some centres unmarked) | 9.28 |

Attention now turns to another entry.
IN: Fill blank: measured pIC50 of the compound CC[C@H](C)C(NC(=O)C1CCCCN1C)C(=O)N(C)[C@H](C[C@@H](OC(C)=O)c1nc(C(=O)N[C@@H](Cc2ccc(F)cc2)C[C@H](C)C(=O)O)cs1)C(C)C (some centres unmarked) is ____.
OUT: 8.71
